- systemName: Cathepsin B (Homo sapiens)
- experimentNotes: Inhibition of human recombinant cathepsin B assessed as formation of fluorescent degradation product AMC using Z-Arg-Arg-AMC as substrate at 50 uM by fluorescence microplate assay
As shown below, each of these compounds has a reported inhibition value.
Your answer should be a plain number; it is taken to be in %.

Would you please look over these solved cases?
{"mol": "C[C@@H](NC(=O)c1ccccc1Nc1nc(Cl)nc(Cl)n1)C(=O)O", "quantityUnit": "%", "inhibition": -1.7}
{"mol": "OCCc1ccccc1Nc1nc(Cl)nc(N2CCOCC2)n1", "quantityUnit": "%", "inhibition": -4.76}
{"mol": "O=C(O)c1ccccc1Sc1nc(Cl)nc(Cl)n1", "quantityUnit": "%", "inhibition": 2.3}
{"mol": "O=c1nc(-c2cccc([N+](=O)[O-])c2)nc(S)[nH]1", "quantityUnit": "%", "inhibition": 4.71}
{"mol": "CC(C)OC(=O)[C@H](C)NC(=O)c1ccc(Nc2nc(Cl)nc(Cl)n2)cc1", "quantityUnit": "%", "inhibition": 1.68}

What value of inhibition has been reported for the following compound? "CC(C)(C)c1ccccc1Nc1nc(Cl)nc(Cl)n1"
-7.27

What value of inhibition has been reported for the following compound? "COc1nc(OC)nc(Sc2ccccc2C(=O)N[C@@H](C)C(=O)OCc2ccccc2)n1"
3.18

What value of inhibition has been reported for the following compound? "Clc1nc(Cl)nc(Nc2ccccc2Br)n1"
-1.59

What value of inhibition has been reported for the following compound? "COc1nc(Nc2ccccc2C(=O)O)nc(OC)n1"
6.34

What value of inhibition has been reported for the following compound? "O=c1nc(-c2ccccc2)nc(S)[nH]1"
-3.22

What value of inhibition has been reported for the following compound? "COC(=O)c1ccccc1Oc1nc(OC)nc(OC)n1"
-0.33

What value of inhibition has been reported for the following compound? "OCCc1ccccc1Nc1nc(Cl)nc(Cl)n1"
-3.38
